Reference source: the C3SDB collision cross section collection

# Experimental context: [M+Na]+; instrument: TW; calibrated with polyalanine and drug standards
Assay endpoint: collision cross section (N2) (Å²)

Compound	collision cross section (N2) [Å²]
C/C=C(\C)C(=O)O[C@H]1C[C@@H](OC(C)=O)[C@@]2(C(=O)OC)CO[C@H]3[C@@H](O)[C@@](C)([C@]45O[C@@]4(C)[C@H]4C[C@@H]5O[C@@H]5OC=C[C@@]54O)[C@H]4[C@]1(CO[C@]4(O)C(=O)OC)[C@@H]32	241.4
CC(=O)N[C@@H](Cc1c[nH]c2ccccc12)C(N)=O [ACETYLTRYPTOPHANAMIDE]	159.3
OC[C@@H](O)[C@@H](O)[C@H](O)[C@H](O)CO	139.6
CCCCOC(=O)c1ccccc1C(=O)OCCCC [DIBUTYL PHTHALATE]	180.7
O=C(O)CCCCCCCC(O)C(O)CCCCCCO (centres undefined)	175.9
CC1(C)O[C@@H]2[C@@H](CO[C@@]3(COS(N)(=O)=O)OC(C)(C)O[C@@H]23)O1 [TOPIRAMATE]	170.1
OC[C@H]1O[C@@H](O[C@H]2[C@H](O)[C@@H](O)[C@@H](O)O[C@@H]2CO)[C@H](O)[C@@H](O)[C@@H]1O [CELLOBIOSE (D[+])]	175.7
CS(=O)(=O)c1ccc([C@@H](O)[C@@H](CF)NC(=O)C(Cl)Cl)cc1	170.7
CCCCCCCCCCCCCCCC(=O)OCC(O)CO (centres undefined)	195.9
C[C@@H]1O[C@@H](Oc2c(-c3ccc(O)c(O)c3)oc3cc(O)cc(O)c3c2=O)[C@H](O)[C@H](O)[C@H]1O	205.9
CC(=O)N[C@H]1C(O)O[C@H](CO)[C@@H](O)[C@@H]1O[C@H](C)C(=O)O (some centres undefined)	164.8
O=C(CCc1ccc(O)cc1)c1c(O)cc(O)cc1O[C@@H]1O[C@H](CO)[C@@H](O)[C@H](O)[C@H]1O	194.4
C/C=C(/C(=C/C)c1ccc(O)cc1)c1ccc(O)cc1	153.2
C[C@@H]1CC[C@H]2[C@@H](C)C(=O)O[C@@H]3O[C@@]4(C)CC[C@@H]1[C@]32OO4	168.1
